Where these numbers come from: patent US20060115428A1

Molecular target: T1, recombinant fibronectin domain ED-B (His)6 (human, UniProt P02751 1266-1356)
T1 construct: domain: ED-B; Produced by standard procedures; immobilised on ELISA plates or on the BIAcore chip; also called recombinant ED-B; human ED-B
Experiment: SPR (BIAcore), ED-B immobilised on chip, Fab in flow
assay metric: koff (s⁻¹)

* MOR02722 (Fab, V domains shown, HuCAL GOLD Fab, VH3/K2) VH: QVQLVESGGGLVQPGGSLRLSCAASGFTFSSNAIHWVRQAPGKGLEWVSSISGSGSNTYYADSVKGRFTISRDNSKNTLYLQMNSLRAEDTAVYYCARFIASWGQGTLVTVSS VL: DIVMTQSPLSLPVTPGEPASISCRSSQSLVHSNGYTDLNWYLQKPGQSPQLLIYLGSYRASGVPDRFSGSGSGTDFTLKISRVEAEDVGVYYCQQYSNFPFTFGQGTKVEIKR | 0.014
